B1: HHH_rd2_0155 (parent)
chain: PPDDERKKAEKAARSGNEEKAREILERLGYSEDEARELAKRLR

variants of: B1; assay: folding stability dG (cDNA display proteolysis); higher = more stable; details: PBS, room temperature
Recorded folding stability dG, one value per entry.

For orientation, consider the following solved cases.
mutation-key: N17M
reported: 1.61 kcal/mol
--
mutation-key: S31V
reported: 0.347 kcal/mol
--
mutation-key: A13G
reported: 1.07 kcal/mol
--
mutation-key: P2K
reported: 2.11 kcal/mol
--
mutation-key: K20H
reported: 1.73 kcal/mol
--
mutation-key: E37V
reported: 2.03 kcal/mol

Query string: Look up folding stability dG for this variant: A39Y
Result string: 1.66 kcal/mol

Query string: Look up folding stability dG for this variant: K8P
Result string: 1.14 kcal/mol

Query string: Look up folding stability dG for this variant: P2H
Result string: 2.24 kcal/mol

Cited source for all entries: the MegaScale stability set (Tsuboyama et al. 2023)
